Ref: patent US10112935B2

List of IC50 values.
# target.or.test.system: GST-tagged human ROCK2 catalytic domain 1-553 (Homo sapiens (Human))
# Sequence (O75116 1-553): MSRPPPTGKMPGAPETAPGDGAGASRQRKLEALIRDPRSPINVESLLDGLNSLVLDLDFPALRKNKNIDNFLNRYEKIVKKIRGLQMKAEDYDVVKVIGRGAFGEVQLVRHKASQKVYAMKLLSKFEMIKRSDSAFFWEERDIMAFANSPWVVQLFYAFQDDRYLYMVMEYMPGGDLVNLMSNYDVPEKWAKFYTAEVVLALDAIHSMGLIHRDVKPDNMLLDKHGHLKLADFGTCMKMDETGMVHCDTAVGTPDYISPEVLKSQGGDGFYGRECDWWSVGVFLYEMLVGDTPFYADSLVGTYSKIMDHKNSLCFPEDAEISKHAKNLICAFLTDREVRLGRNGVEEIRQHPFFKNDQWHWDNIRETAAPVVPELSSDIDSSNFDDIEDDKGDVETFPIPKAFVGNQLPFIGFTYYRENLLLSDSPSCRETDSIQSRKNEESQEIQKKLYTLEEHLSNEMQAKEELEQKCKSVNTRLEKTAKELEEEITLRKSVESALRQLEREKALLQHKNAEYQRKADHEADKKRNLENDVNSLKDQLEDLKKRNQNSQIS
# method.summary: Inhibition of Rho-associated protein kinase isoform 2 (LANCE Ultra ULight-CREBtide FRET kinase assay)
# Format: biochemical
# condition.parameters: 30 μM was the highest concentration analyzed

Below are worked cases with known answers.
**Q:** What IC50 value was documented for this compound, CC(=O)Nc1cc(-c2nnc(Nc3ccc4[nH]ncc4c3Cl)s2)ccc1C(F)(F)F [Example 48O] ?
**A:** < 1 µM

**Q:** What IC50 value was documented for this compound, O=C(O)c1cccc(-c2nnc(Nc3ccc4[nH]ncc4c3)s2)c1 [Example A-9] ?
**A:** 1 to 15 µM

Now for another entry.
**Q:** What IC50 value was documented for this compound, O=C(Nc1cc(-c2nnc(Nc3ccc4[nH]ncc4c3Cl)s2)ccn1)c1ccc(F)cc1.O=C(O)C(F)(F)F [Example 35B] ?
**A:** < 1 µM
